Recorded Herbicidal action against [%] AVEFA, one value per entry.
Tested on: Avena fatua
Assay: Post-emergence herbicidal action against AVEFA
Type: in vivo
Conditions: 20 g a.i./ha, visual rating about 3 weeks after treatment
test-readout: Herbicidal action against [%] AVEFA (%)

[
  {
    "compound": "C=CC1(C(=O)NC2C=CC(C(=O)OCCSC)C2)CC(c2cc(Cl)cc(Cl)c2)=NO1 (stereo not shown) [Example I-55]",
    "assay-result": 80
  },
  {
    "compound": "C=CC1(C(=O)NC2C=CC(C(=O)OCCSC)C2)CC(c2cc(C)cc(F)c2)=NO1 (mixture of isomers) [Example I-47]",
    "assay-result": 80
  },
  {
    "compound": "CSCCOC(=O)C1C=CC(NC(=O)C2(C(F)(F)F)CC(c3cc(F)cc(C#N)c3)=NO2)C1 (mixture of isomers) [Example I-37]",
    "assay-result": 90
  },
  {
    "compound": "CC1(C(=O)NC2C=CC(C(=O)OCCSc3ccccc3)C2)CC(c2cc(F)cc(F)c2)=NO1 (stereo not shown) [Example I-16]",
    "assay-result": 90
  }
]

----------
Tested on: Avena fatua
Test: Post-emergence herbicidal action against AVEFA
Format: in vivo
Settings: 20 g a.i./ha, visual rating about 3 weeks after treatment

[
  {
    "molecule": "CCSCCOC(=O)C1C=CC(NC(=O)C2(OC)CC(c3cc(F)cc(F)c3)=NO2)C1 (stereo not shown)",
    "system-tested": "Avena fatua",
    "Herbicidal action against [%] AVEFA (%)": 90
  },
  {
    "molecule": "CC1(C(=O)NC2C=CC(C(=O)OCCS(C)(=O)=O)C2)CC(c2cc(F)cc(F)c2)=NO1 (stereo not shown)",
    "system-tested": "Avena fatua",
    "Herbicidal action against [%] AVEFA (%)": 80
  },
  {
    "molecule": "CSCCOC(=O)C1C=CC(NC(=O)C2(C)CC(c3cc(F)cc(F)c3)=NO2)C1 (stereo not shown)",
    "system-tested": "Avena fatua",
    "Herbicidal action against [%] AVEFA (%)": 100
  },
  {
    "molecule": "COC1(C(=O)NC2C=CC(C(=O)OCCSC(C)C)C2)CC(c2cc(F)cc(F)c2)=NO1 (stereo not shown)",
    "system-tested": "Avena fatua",
    "Herbicidal action against [%] AVEFA (%)": 90
  }
]

----------
Recorded Herbicidal action against [%] ABUTH, one value per entry.
Test system: Abutilon theophrasti
Experiment: Post-emergence herbicidal action against ABUTH
Format: in vivo
Conditions: 20 g a.i./ha, visual rating about 3 weeks after treatment

[
  {
    "molecule": "CSCCOC(=O)C1C=CC(NC(=O)C2(C(F)(F)F)CC(c3cc(F)cc(C#N)c3)=NO2)C1 (mixture of isomers) [Example I-38]",
    "system-tested": "Abutilon theophrasti",
    "Herbicidal action against [%] ABUTH, %": 90
  },
  {
    "molecule": "CSCCOC(=O)C1C=CC(NC(=O)C2(CF)CC(c3cc(F)cc(C#N)c3)=NO2)C1 (stereo not shown) [Example I-65]",
    "system-tested": "Abutilon theophrasti",
    "Herbicidal action against [%] ABUTH, %": 80
  },
  {
    "molecule": "C=CCSCCOC(=O)C1C=CC(NC(=O)C2(C)CC(c3cc(F)cc(F)c3)=NO2)C1 (stereo not shown) [Example I-11]",
    "system-tested": "Abutilon theophrasti",
    "Herbicidal action against [%] ABUTH, %": 90
  },
  {
    "molecule": "COC1(C(=O)NC2C=CC(C(=O)OCCSC)C2)CC(c2cc(F)cc(F)c2)=NO1 (stereo not shown) [Example I-20]",
    "system-tested": "Abutilon theophrasti",
    "Herbicidal action against [%] ABUTH, %": 80
  },
  {
    "molecule": "C=CC1(C(=O)NC2C=CC(C(=O)OCCSC)C2)CC(c2cc(F)cc(C#N)c2)=NO1 (stereo not shown) [Example I-39]",
    "system-tested": "Abutilon theophrasti",
    "Herbicidal action against [%] ABUTH, %": 80
  },
  {
    "molecule": "CSCCOC(=O)C1C=CC(NC(=O)C2(C3CC3)CC(c3cc(F)cc(F)c3)=NO2)C1 (stereo not shown) [Example I-28]",
    "system-tested": "Abutilon theophrasti",
    "Herbicidal action against [%] ABUTH, %": 90
  },
  {
    "molecule": "COC(=O)CSCCOC(=O)C1C=CC(NC(=O)C2(C)CC(c3cc(F)cc(F)c3)=NO2)C1 (stereo not shown) [Example I-64]",
    "system-tested": "Abutilon theophrasti",
    "Herbicidal action against [%] ABUTH, %": 80
  }
]
